# System: SF-295 CNS
# Procedure Text: NCI tumour cell line growth inhibition, 48 h
*1 amine or outer side, *2 acyl side, *3 side chain or, on linkers, in order; H or OH if unused. Where a SMILES comes first, the peptide text is derived from it. [ ]: non-standard residue; d: D form. The star is where a group is joined. X12 = NCCCCC(N[*:1])C(=O)CN1CCCC1C(=O)[*:2]; Pentadecanoyl = CCCCCCCCCCCCCCC(=O)*
# TGI per record follows
Reported Metric: TGI

Molecule | Target System | Reported Value
COC1OC(=O)C(OC)C(OC)C1OC (stereo unspecified) | SF-295 CNS | > 100 µM
O=C1NC(=Nc2ccccc2Cl)SC1C(=O)Nc1ccc([N+](=O)[O-])cc1[N+](=O)[O-] (stereo unspecified) | SF-295 CNS | > 100 µM
O=C1CCC(=O)C(C(=O)CCC(=O)Nc2ccc(Cl)cc2)C1 (stereo unspecified) | SF-295 CNS | > 100 µM
O=[P+](O)c1cc2c3ccccc3ccc2c2ccccc12 | SF-295 CNS | > 100 µM
COC(=O)[C@@H](C)C[C@H](Cc1ccccc1)NC(=O)c1csc([C@@H](C[C@H](C(C)C)N(C)C(=O)[C@@H](NC(=O)CN(C)C)C2CC2)OC(C)=O)n1 | SF-295 CNS | 0.329 µM
Nc1ccc(Sc2ccc3c4c2cccc4c(=O)n2c4ccccc4nc32)cc1 | SF-295 CNS | 8.01 µM
O=C(O)CCC(NC(=O)/C(=C/c1ccccc1)NC(=O)c1ccccc1)C(=O)O (stereo unspecified) | SF-295 CNS | > 100 µM
CCOC(=O)C1=C(C)N(c2ccc(Cl)cc2)C2(O)C=CC(=O)C3C(=O)N(c4ccccc4)C(=O)C132 (stereo unspecified) | SF-295 CNS | 5.25 µM
O=C1/C(=C/c2ccc(Cl)cc2)COc2ccc(Br)cc21 | SF-295 CNS | > 100 µM
CC1(C)CC(=O)C=C(NC(=O)c2ccccc2)C1 | SF-295 CNS | > 100 µM
CCCCCCCCCCCCCCC(=O)NC(CCCCN)C(=O)CN1CCCC1C(=O)NCC(=O)NC(Cc1ccccc1)C(=O)N1CCCC1C(=O)NC(CO)C(=O)NC(Cc1ccc(O)cc1)C(=O)NC(CCCCN)C(=O)NC(CC(C)C)C(=O)NC(CCCN=C(N)N)C(=O)N1CCCC1C(=O)NCC(N)=O (stereo unspecified) (Pentadecanoyl-[X12]GFPSYKLRPG-NH2; configuration not given here) | SF-295 CNS | 57.3 µM

---

# Test system: NCI-H522 lung
# Procedure Text: NCI tumour cell line growth inhibition, 48 h

Molecule | TGI
NC(=O)c1nnc2c(F)cccc2c1N | > 100 µM
CC(=O)c1nc(C#N)c(N)o1 | > 100 µM
CCC(C)Cn1c(C)nc2c1C(=O)c1ccccc1C2=O (stereo not drawn) | > 100 µM
COc1cc2ccc(C(=O)O)cc2cc1OC | > 100 µM
O=[P+](O)c1cc2c3ccccc3ccc2c2ccccc12 | > 100 µM
Cc1nc2ccccc2nc1N1CCCC1 | > 100 µM
COC(=O)CCCCCCCCC(=O)c1c(C)[nH]c(/C=C2\N=C(c3ccc[nH]3)C=C2OC)c1C | > 69.9 µM
COc1ccc(C2CCc3c(cnc4nc(N)nc(N)c34)C2)cc1 (stereo not drawn) | 44.9 µM
Nc1cc2ccncc2c2ccccc12 | 26.6 µM
CCc1cc(Nc2nccc(-c3c(-c4ccc(OC)c(C(=O)Nc5c(F)cccc5F)c4)nc4ccccn34)n2)c(OC)cc1N1CCC(N2CCN(S(C)(=O)=O)CC2)CC1 | > 100 µM
COc1cc2cc(Oc3ccc(NC(=O)Nc4cc(C(F)(F)F)cc(C(F)(F)F)c4)cc3)c(C)nc2cc1OCCN1CCCCC1 | 3.46 µM
Cc1nc2cccc(F)c2c(=O)n1-c1nnc(C2CC2)s1 | > 10 µM
Clc1ccc2c(NCCNc3nc(Cl)nc4ccccc34)ccnc2c1 | 2.76 µM

---

# System: COLO 205 colon
# Procedure Text: NCI tumour cell line growth inhibition, 48 h

Compound | TGI
c1ccc2c(Nc3ccc4c(c3)OCO4)c3ccoc3nc2c1 | > 100 µM
CC1CC(=O)CC[C@@H]1OCc1ccccc1 (stereo not given in full) | > 100 µM
COc1ccc(-c2nc3ncccn3c2-c2ccc(S(C)(=O)=O)cc2)cc1 | > 100 µM
COC1OC(=O)C(OC)C(OC)C1OC (stereo not given) | > 100 µM
O=c1cc(-c2ccccc2)[nH]c2c(F)ccc(F)c12 | > 100 µM
CC(=O)OC1COC(n2c(N)c(C#N)c(-c3ccccc3)c(C#N)c2=S)C(OC(C)=O)C1OC(C)=O (stereo not given) | > 100 µM
C[S+](C)C1(c2ccccc2)C(=O)c2ccccc2C1=O | > 100 µM
COc1ccc2c(c1)/C(=N/OC(C)=O)c1c-2c(Nc2ccc(/C(C)=N/OC(C)=O)cc2)nc2ccccc12 | > 100 µM
C(=N\Nc1nnc(-c2nnc(N/N=C/c3ccccc3)o2)o1)/c1ccccc1 | > 10 µM
Cc1cc(S(=O)(=O)Nc2n[nH]c(N)n2)c(S)cc1Cl | > 10 µM
Cc1cc(C)c(N)c(CO)c1 | > 100 µM
C/C(=C\c1ccccc1)n1c(=O)cc(C)n1C | > 100 µM
CCOC(=O)C1=C(C)N(c2ccc(Cl)cc2)C2(O)C=CC(=O)C3C(=O)N(c4ccccc4)C(=O)C132 (stereo not given) | 3.26 µM
CCN1CCN(c2nc(NNC(=O)c3cccc(OC)c3)nc(N3CCN(C(c4ccccc4)c4ccccc4)CC3)n2)CC1 | 5.55 µM
COc1ccc(Nc2ccnc3cc(Cl)ccc23)cc1CN(CCCl)CCCl | 3.56 µM
CCCCOc1nc2ccccc2cc1C1CNC(=O)c2ccccc2N1 (stereo not given) | 5.63 µM
Cc1ccc(S(=O)(=O)N/N=C/CN2C(=O)c3ccccc3C2=O)cc1 | > 100 µM
CCN(CC)Cc1cc(Nc2c3ccc(Cl)cc3nc3c(C)cccc23)ccc1O | 2.6 µM
COC1OC2COC(c3ccccc3)OC2C(OC(=S)c2ccccc2)C1O (stereo not given) | > 100 µM
C[C@@H]1CC(=O)[C@@]2(C)[C@](O)(CCC3O[C@]32C)[C@@]12CC(c1ccoc1)OC2=O (stereo not given in full) | > 100 µM

---

# TGI per record follows
# Tested on: TK-10 renal
# Procedure Text: NCI tumour cell line growth inhibition, 48 h

Compound | TGI
CC(C)=CCCC1(C)C=Cc2c(ccc3c2[nH]c2cc(O)c(C)cc23)O1 (centres undefined) | > 25 µM
CN1CCN(Cc2ccc(NC(=O)c3cncc(C#Cc4cncc5[nH]ncc45)c3)cc2C(F)(F)F)CC1 | 5.43 µM
Cc1cc(N)c2cc(NC(=O)CCCCCCCCC(=O)Nc3ccc4nc(C)cc(N)c4c3)ccc2n1 | > 100 µM
CO[C@H]1/C=C/C=C/C=C/C[C@H](OC(=O)[C@@H](C)NC(=O)C2CCCCC2)[C@H](C)[C@@H](O)/C(C)=C\CCC2=CC(=O)C=C(NC(=O)C1)C2=O | 2.31 µM
NS(=O)(=O)c1ccc(NS(=O)(=O)c2ccc(NC(=O)N(c3ccccc3)c3ccccc3)cc2)cc1 | > 100 µM
O=C(O)CSc1nnc(COc2ccccc2)n1-c1ccccc1 | > 100 µM
CCN(CC)C(=O)c1ccc(C)c(N=NN(C)C)c1 | > 100 µM
COc1ccccc1NC(=O)NS(=O)(=O)c1ccccc1 | > 100 µM
Cc1nc2ccccc2nc1N1CCCC1 | > 100 µM

---

# System: OVCAR-3 ovarian
# Procedure Text: NCI tumour cell line growth inhibition, 48 h; in the data active = GI50 below about 0.43 µM; inactive = the rest
Outcome codes: true = active, false = inactive

Molecule | Label Class
Cc1cccc(Cc2cnc(NC(=O)/C=C/c3ccco3)s2)c1 | true
c1ccc2c(Nc3ccc4c(c3)OCO4)c3ccoc3nc2c1 | false
COC(=O)C([O][Ge]([CH3])([CH3])[CH3])c1ccccc1 (stereo unspecified) | false
S=C1NC2=C(CCOc3c2ccc2ccccc32)C(c2ccc(Cl)cc2)N1 (stereo unspecified) | false
CCOC(=O)CCC(NC(=O)c1ccc(Nc2nc3cc(N)cc(N)c3nc2-c2ccccc2)cc1)C(=O)OCC (stereo unspecified) | false
O=C(Nc1ccc(I)cc1F)c1cc(F)ccc1O | true

---

# System: MCF7 breast
# Procedure Text: NCI tumour cell line growth inhibition, 48 h; in the data active = GI50 below about 0.43 µM; inactive = the rest
Outcome codes: yes (1) (active), no (0) (inactive)

Compound | Label Class
COc1cc2cc(C(=O)N3C[C@H](CCl)c4c3cc(O)c3ccccc43)[nH]c2c(OC)c1OC | yes (1)
CN(C)CC1CCCCCCCCCCC1=O (stereo not given) | no (0)
N#CSc1cc(-c2nc3ccccc3o2)ccc1N | no (0)
O=C1c2ccccc2-c2c1c1ccccc1c(=O)n2CCCNCCO | yes (1)
Cc1cccc(Cc2cnc(NC(=O)/C=C/c3ccco3)s2)c1 | yes (1)
C[C@@H]1CC[C@H]2C(CN(C)CC3=C(C(F)(F)F)O[C@@H]4O[C@@]5(C)CC[C@H]6[C@H](C)CC[C@@H]3[C@@]46OO5)=C(C(F)(F)F)O[C@@H]3O[C@@]4(C)CC[C@@H]1[C@]32OO4 | no (0)
CN1CCN(Cc2ccc(NC(=O)c3cncc(C#Cc4cncc5[nH]ncc45)c3)cc2C(F)(F)F)CC1 | no (0)
COc1cc(C2CC(c3cc(Cl)c(C)cc3O)=NN2c2ccc(S(N)(=O)=O)cc2)cc(OC)c1OC (stereo not given) | no (0)
COC(=O)CCCCCCCCC(=O)c1c(C)[nH]c(/C=C2\N=C(c3ccc[nH]3)C=C2OC)c1C | no (0)
CCOC(=O)Nc1ccc2nc(Sc3ccc(Cl)cc3)sc2c1 | no (0)

Source: PubChem BioAssay (NCI)
